targetOrTestSystem: Androgen receptor (Homo sapiens)
Sequence (P10275 whole entry): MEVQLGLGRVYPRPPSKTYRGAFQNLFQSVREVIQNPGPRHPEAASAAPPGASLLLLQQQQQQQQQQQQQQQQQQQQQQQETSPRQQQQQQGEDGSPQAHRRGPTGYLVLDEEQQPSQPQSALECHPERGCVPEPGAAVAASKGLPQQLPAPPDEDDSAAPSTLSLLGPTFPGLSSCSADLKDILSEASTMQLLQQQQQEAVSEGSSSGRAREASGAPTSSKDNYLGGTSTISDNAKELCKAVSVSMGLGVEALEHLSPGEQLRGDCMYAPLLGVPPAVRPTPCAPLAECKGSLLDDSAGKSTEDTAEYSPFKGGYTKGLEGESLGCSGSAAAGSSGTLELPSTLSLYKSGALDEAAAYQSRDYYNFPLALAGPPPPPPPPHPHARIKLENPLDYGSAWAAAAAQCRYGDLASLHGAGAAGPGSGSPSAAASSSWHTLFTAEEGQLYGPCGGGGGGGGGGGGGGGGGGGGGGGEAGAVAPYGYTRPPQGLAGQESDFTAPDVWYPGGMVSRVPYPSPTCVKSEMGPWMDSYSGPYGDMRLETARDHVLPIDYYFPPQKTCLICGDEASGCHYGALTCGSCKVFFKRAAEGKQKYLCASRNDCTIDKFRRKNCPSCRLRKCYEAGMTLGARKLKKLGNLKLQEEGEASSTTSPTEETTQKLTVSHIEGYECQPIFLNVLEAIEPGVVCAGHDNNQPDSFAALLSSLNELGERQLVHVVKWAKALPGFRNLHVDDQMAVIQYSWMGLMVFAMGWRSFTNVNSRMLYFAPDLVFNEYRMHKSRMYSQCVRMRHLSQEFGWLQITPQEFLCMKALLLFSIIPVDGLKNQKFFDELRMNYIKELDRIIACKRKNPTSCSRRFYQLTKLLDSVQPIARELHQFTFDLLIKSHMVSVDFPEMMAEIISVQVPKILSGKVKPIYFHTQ
methodSummary: Inhibition of AR transcriptional activity in human LNCaP cells harboring ARR2PB-eGFP incubated for 72 hrs by fluorescence assay
Format: cell-based
Lab note: cut-off is 1000 nM. Strictly less in IC50 is T. Exactly 1000 nM or more is F.

- molecule: "Oc1ccccc1/C=N/c1ccc(Cl)c(Cl)c1"
  labelClass: "F"
- molecule: "O=c1cc(C(F)(F)F)c2ccc(OCc3ccc(Cl)cc3)cc2o1"
  labelClass: "F"
- molecule: "O=c1cc(C(F)(F)F)c2ccc(OCc3ccccc3)cc2o1"
  labelClass: "F"
- molecule: "Cc1cccc(C(=O)Nc2ccc3c(C(F)(F)F)cc(=O)oc3c2)c1"
  labelClass: "F"
- molecule: "O=c1cc(C(F)(F)F)c2ccc(OCc3ccccc3Cl)cc2o1"
  labelClass: "T"
- molecule: "O=c1cc(C(F)(F)F)c2ccc(OCc3ccccc3F)cc2o1"
  labelClass: "T"
- molecule: "O=C(Nc1ccc2c(C(F)(F)F)cc(=O)oc2c1)c1ccccc1F"
  labelClass: "F"
- molecule: "COC(=O)C(CC(C)C)Oc1ccc2c(C(F)(F)F)cc(=O)oc2c1 (centres undefined)"
  labelClass: "F"
- molecule: "O=c1cc(C(F)(F)F)c2ccc(/N=C/c3ccccc3O)cc2o1"
  labelClass: "F"
